The following compounds are shown together with reported melting point values.
recorded.metric: melting point

INSERT INTO measurements (item_smiles, recorded_metric, recorded_result) VALUES
  ('C=C[Si](c1ccccc1)(c1ccccc1)c1ccccc1', 'melting point', '63 to 70 °C'),
  ('O=C(O)c1cc2cc(Br)ccc2o1', 'melting point', '257 to 260 °C'),
  ('Cc1nccn1-c1ccc(CN)cc1', 'melting point', '90.5 to 91.5 °C'),
  ('Nc1ccc(C/C(=N/O)c2ccc(N)cc2)cc1', 'melting point', '146 to 147 °C');

---

The following molecules are shown together with reported melting point values.
recorded.metric: melting point

INSERT INTO assay_data (molecule, recorded_metric, recorded_result) VALUES
  ('FC(F)(F)c1ccc2[nH]c(S)nc2c1', 'melting point', '277 to 279 °C'),
  ('Cc1nn(-c2ccccc2)c(C)c1CO', 'melting point', '106 to 110 °C'),
  ('O=C1c2ccccc2C(=O)N1CC1CNCCO1 (stereo not given)', 'melting point', '138 to 143 °C'),
  ('O=[N+]([O-])c1cc(C=NO)ccc1C=NO', 'melting point', '175 to 176 °C'),
  ('COC(=O)c1ccc(N2CCCC2)cc1', 'melting point', '141 to 143 °C');

Just for reference, a melting point compilation (Tetko et al.) is where these values come from.
